Experiment: soluble fraction after stress (log2 fold change); higher = more stays soluble; pooled small domains, quantitative proteomics;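 further: 20 min heating vs room temperature control held 20 min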
Conditions: stress: 75 degC
Recorded soluble fraction (log2) values for a group of sequences are listed next.

{"SEQUENCE ENTRY": "HMNETVTNQTVLDLLKEGFTSEEIIGAIENSSTRTITYDINFMRQLKAAGADVTLTTYLQKIAKKDM", "soluble fraction (log2)": -0.136}
{"SEQUENCE ENTRY": "HMENTGFKDKKGNYIFDGDIVKDILGNIMKVEFKHFKWQLIPLNKTAFNMPMVDWLDLETETLNAEIIGN", "soluble fraction (log2)": -2.07}
{"SEQUENCE ENTRY": "HMTVGENTYELIKKDIIFGVLPPLKKLKLQELKKIYNASVSTLREILSRLTGDGFVFSEEQKGFYVSPV", "soluble fraction (log2)": 0.0263}
{"SEQUENCE ENTRY": "HMEIEETKKNSRTKIPENFDYKLINGLSNEIRAKLELIRPIDLLQASRIDGMTPAALTLVHLWIKKYSG", "soluble fraction (log2)": -1.52}

###

The reader will find reported soluble fraction (log2) values listed item by item below.
Test: soluble fraction after stress (log2 fold change); higher = more stays soluble; pooled small domains, quantitative proteomics
Conditions: stress: 75 degC

{"SEQUENCE ENTRY": "HMSGSKEQQIVILNNILERQLQAFGLQGNREFPMVTLKNIYNSLSKIIENAGLKNVENYFVNPEQGKQM", "soluble fraction (log2)": -0.0735}
{"SEQUENCE ENTRY": "HMAPPPLAGAREALREQIRRGSLSARRGFDAYADALGLPAGTRGAHPIFAALQRLDYPQALRLLDQEPT", "soluble fraction (log2)": -0.0614}
{"SEQUENCE ENTRY": "HMNIVVSSIDSNSFEIVNKETGEQAVISYDKETKKGFVLINGVKKEFFQDGNKVYYDGYVIAE", "soluble fraction (log2)": 0.0406}
{"SEQUENCE ENTRY": "HMARDSYNGVQRTISTLLGQGNYDRAYDVAVGARGQMSKQQWSDVAKRIYEVSGIKIDDSVKY", "soluble fraction (log2)": -0.113}

###

Assay: soluble fraction after stress (log2 fold change); higher = more stays soluble; pooled small domains, quantitative proteomics
Conditions: stress: 75 degC
TEST READOUT: soluble fraction (log2)

{"SEQUENCE ENTRY": "HMRRATLERLANNTAEKAIRYKRSLALEPMNPQERRIIHAALQEVEGVSTHSVGTEPNRKVIVVPDGV", "TEST READOUT": "soluble fraction (log2)", "ASSAY VALUE": -0.329}
{"SEQUENCE ENTRY": "HMSKSKSEIDKDPHFWSSLFQRIGEGESLRKIAKDSKIPKSTLWAWIRNDPQLALRYSEAQQ", "TEST READOUT": "soluble fraction (log2)", "ASSAY VALUE": 0.0521}
{"SEQUENCE ENTRY": "HMSSQWWYSAGGERKGPVDFATLRGLYVQGAIDGRTLAWREDMQGWEAVNDIPDLEPLRRAVPPEL", "TEST READOUT": "soluble fraction (log2)", "ASSAY VALUE": -0.0747}
{"SEQUENCE ENTRY": "HMDLLKANNLSQINVDKLTDEEILKYSQQLKQSGLTESQAEQIAIARGMPATEIAKLKQRLISLTNMQ", "TEST READOUT": "soluble fraction (log2)", "ASSAY VALUE": 0.118}
{"SEQUENCE ENTRY": "HMQMKDRILRIMEHEGISPSKFAEEIGIQRSAMSHIISGRNNPSLDVLTKIMQRFTYVDTDWLLFGKGSMV", "TEST READOUT": "soluble fraction (log2)", "ASSAY VALUE": -1.99}
{"SEQUENCE ENTRY": "HMVKTANVAYSEFLKLVESDNISDVSIVGRTITGHLDDGTKFSTYTPPNDPSLIDKLTRKNVIIKSAPE", "TEST READOUT": "soluble fraction (log2)", "ASSAY VALUE": 0.0585}
{"SEQUENCE ENTRY": "HMQISGSEELEKIVQTVLEKNTDVVEEYKSGKTKVFAFLMGQVMKESRGKANPRLAKDILEKFLA", "TEST READOUT": "soluble fraction (log2)", "ASSAY VALUE": -0.429}
{"SEQUENCE ENTRY": "HMHHSGLRQSQFDEISRQIRSLLEMESLSLQELKTRMEDVPEEQLTKVVSYLLSEEIIRQENGRLQ", "TEST READOUT": "soluble fraction (log2)", "ASSAY VALUE": 0.254}
{"SEQUENCE ENTRY": "HMNNFTPEHLEKDIEGSLFFRRLKETAREEPGSLTVAQKDFIQMWHDQADGVYTLRQVFVQTAFDHVRSL", "TEST READOUT": "soluble fraction (log2)", "ASSAY VALUE": 0.315}
{"SEQUENCE ENTRY": "HMKQYSFEISKADFKKISENFNFKIINEINDSLIISLNDKNINLDELLIFFVERKIKVRSIENI", "TEST READOUT": "soluble fraction (log2)", "ASSAY VALUE": -3.69}
{"SEQUENCE ENTRY": "HMKITAPLPGTITEIKVKVGDTVKNGDTVVVLEAMKMQNNIEAESNGTVTAIFVNKGDTVMEGDALMTI", "TEST READOUT": "soluble fraction (log2)", "ASSAY VALUE": -0.075}
{"SEQUENCE ENTRY": "HMLRISLAAARVNAEMTQEDVAREMHVSKNTVVNWEKGKSEPTISQSRELSKLYNMPLEYIFYL", "TEST READOUT": "soluble fraction (log2)", "ASSAY VALUE": -2.68}
{"SEQUENCE ENTRY": "HMSLSISSLVFFRKNAGLTQADIATAMSITQSAVARLEKRLLSDSDVTLKTLERYAEAVGIRMHVDFEP", "TEST READOUT": "soluble fraction (log2)", "ASSAY VALUE": 0.01}
{"SEQUENCE ENTRY": "HMAMNITQRHQEILAVIKQEKHITVSEISKLLGVSEVTIRKDFNYLEEKNLIYRHHGGASLNN", "TEST READOUT": "soluble fraction (log2)", "ASSAY VALUE": -2.78}

###

Experiment: soluble fraction after stress (log2 fold change); higher = more stays soluble; pooled small domains, quantitative proteomics
Settings: stress: 75 degC
Examples of sequences with documented soluble fraction (log2) follow.

{"SEQUENCE ENTRY": "HMPSQLPLAFARRHGVLLRGFSNGLAQLTVRPEVSTLSLAETRRHLGVPLALEKVTTERFDQLLREAYEA", "soluble fraction (log2)": -0.9}
{"SEQUENCE ENTRY": "HMSSLTDNFVKALSYYLALSGKSKKEVADGIGIPPTTFSSWSNGKHLPDMDRLQNLATYLGAPVSEFFDFT", "soluble fraction (log2)": 0.238}
{"SEQUENCE ENTRY": "HMESWNRARILEKIRELHAQGVALNNASMRRLGYRGMMEAAARPQNFGSWEAAVRAAGIDYDRV", "soluble fraction (log2)": -0.275}
{"SEQUENCE ENTRY": "HMLMNADVLVKYQEDHWIVISEKASQASDTFDKKEQAVERAKEIAKNKNSSVKVYKQDGTLQDTFDYS", "soluble fraction (log2)": 0.351}
{"SEQUENCE ENTRY": "HMRGETSYANDIIKRLKQANLIVVEGTLYPLLNRLKKDGLLHYEWRESQQGPPRKYYGLTEEGEA", "soluble fraction (log2)": -0.273}
{"SEQUENCE ENTRY": "HMPANLTPDYFKAEQWYRSASTNEEKMLALEQMLAVMPKHKGTEHLQADLKRKLSQLKDASAQ", "soluble fraction (log2)": 0.19}

###

Test: soluble fraction after stress (log2 fold change); higher = more stays soluble; pooled small domains, quantitative proteomics
Conditions: stress: 75 degC
Entry flag: Condition met if soluble fraction (log2) reaches 0.2; Condition not met if it does not.

{"SEQUENCE ENTRY": "HMEELTDSELNNLYRELFIARSNASDGVGIIEQKTIKGITYRLSNDNNYLIKELGNKEYIYKNGVWEEYT", "LABEL": "Condition not met"}
{"SEQUENCE ENTRY": "HMSASNSIDFANRMIYNKNQVAVFNFGKHMGRPVLEVLKSDPSYYDWMMKGDFPMDTKRKLTEIKLQGF", "LABEL": "Condition not met"}
{"SEQUENCE ENTRY": "HMQKDYKTRLQEYYAKVGKKVNYMDSSTGPDHDKKFQTQVFLDKEIIGVGEGKSKKSSQQEAAKQALEKI", "LABEL": "Condition met"}
{"SEQUENCE ENTRY": "HMDLDLNIDNYNFDDLLNLFGLKMKFSEDDLKKAKRSVLMTHPDKSGLDKQYFMFFTKAYKMLSQIYYFR", "LABEL": "Condition met"}
{"SEQUENCE ENTRY": "HMKRTRLEEAMDWLREQLNDGPVAYATLKDEAPKAEITLSTLRAAGEALRVDKQKKGVQWGGWTWSLPR", "LABEL": "Condition not met"}
{"SEQUENCE ENTRY": "HMPSLAVYPNPVKDILNIATDKPVHSIRIYNVYGSEVLRAADTNRIDVSHLPAGVYMVSADGKVTRIIK", "LABEL": "Condition not met"}
{"SEQUENCE ENTRY": "HMSEEVDVPDLVGMQLEEAEKSLEPLGLKLKIAKEIPNSEFEKGKIVDQKTKAGEKVKTGYTIEVTVSSG", "LABEL": "Condition not met"}
{"SEQUENCE ENTRY": "HMKEIYIDRGKEALEKELRKRKIPFQEFLSKENTNLLFDTLKIPSHDLEELYLEIGNGKHAASTVVNTVY", "LABEL": "Condition met"}
{"SEQUENCE ENTRY": "HMREVEAPRDLLAALGERPGALDAWKALSFTHQREYVEAIEDARKPETRERRIANAVKMVAERS", "LABEL": "Condition met"}
